# method summary: Pharmacokinetics in rat hepatic portal and tail veins after oral administration
# Format: in vivo
# experimental setup: tail vein (systemic) plasma, oral, 0.5 mg/kg (footnote *), read-out: Tail vein Prodrug AUC
readout: AUC (ng·h/mL)
// units = ng·h/mL; emit number, no label

Any idea what its AUC is? The compound is CC(C)[C@H](NC(=O)CCCC(=O)NC(=N)NC(=O)Cc1c(Cl)cccc1Cl)C(=O)O [Compound 1, Guanfacine (Glutaryl-(S)-Valine) Amide]
29.6

====

# method summary: Prodrug stability in simulated gastric fluid
# experimental setup: 37° C., pH 1.1, HPLC
readout: % prodrug remaining following incubation for 1 h in simulated gastric fluid pH 1.1 (%)
Respond numerically; units are % and should not be typed.

The cases that follow already have their % prodrug remaining following incubation for 1 h in simulated gastric fluid pH 1.1 on record.
CSCC[C@@H](N)C(=O)N[C@@H](CCC(=O)NC(=N)NC(=O)Cc1c(Cl)cccc1Cl)C(=O)O    75
CCC(C)[C@@H](N)C(=O)NCCCC(=O)NC(=N)NC(=O)Cc1c(Cl)cccc1Cl (stereo partly drawn) [Compound 50, Guanfacine (GABA-(R)-Isoleucine) Amide]    85
CC(C)[C@@H](N)C(=O)N[C@@H](COC(=O)NC(=N)NC(=O)Cc1c(Cl)cccc1Cl)C(=O)O    74

% prodrug remaining following incubation for 1 h in simulated gastric fluid pH 1.1 lookup needed for CNCC(=O)N[C@H](C(=O)O)[C@@H](C)OC(=O)NC(=N)NC(=O)Cc1c(Cl)cccc1Cl , thanks.
86

Origin of values: patent US20110065796A1
